Values were extracted from patent US6187802A.

Assign inhibition at 1 µM to each entry below.
molecular target: dopamine (DA) reuptake sites (Rattus norvegicus, UniProt P23977); construct: Striatal tissue from the brains of male Charles River rats weighing 150-250 g; from tissue; host or cells: rat brain striatum (crude synaptosomes in A1, washed membranes in A4); experiment: displacement of [3H]GBR 12935 from dopamine reuptake sites, striatal membranes; type: binding; conditions: 10^-6 M test compound, [3H]GBR 12935 1 nM, one test only, read-out: DA uptake (% displacement of specific binding of tritiated ligand)
Sequence (P23977 whole entry): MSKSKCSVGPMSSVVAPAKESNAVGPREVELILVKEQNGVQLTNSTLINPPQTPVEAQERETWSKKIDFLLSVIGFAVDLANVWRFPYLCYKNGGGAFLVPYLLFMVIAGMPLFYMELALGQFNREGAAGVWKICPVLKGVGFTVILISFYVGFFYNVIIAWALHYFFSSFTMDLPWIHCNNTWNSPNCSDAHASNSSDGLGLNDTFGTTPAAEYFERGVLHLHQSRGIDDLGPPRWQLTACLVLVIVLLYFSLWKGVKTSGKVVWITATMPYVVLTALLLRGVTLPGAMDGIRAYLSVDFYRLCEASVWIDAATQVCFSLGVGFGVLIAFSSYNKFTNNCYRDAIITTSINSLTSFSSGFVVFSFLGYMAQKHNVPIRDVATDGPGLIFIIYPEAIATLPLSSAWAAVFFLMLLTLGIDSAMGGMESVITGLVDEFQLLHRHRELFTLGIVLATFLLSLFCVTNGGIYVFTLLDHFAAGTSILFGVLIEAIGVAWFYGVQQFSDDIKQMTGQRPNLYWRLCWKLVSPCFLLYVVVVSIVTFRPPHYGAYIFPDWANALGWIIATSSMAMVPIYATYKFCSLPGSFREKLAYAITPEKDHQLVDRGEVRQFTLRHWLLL
Where a name gives a salt, the structure may show the parent alone.
Reply with just the number (in %).

Can you look up the measured inhibition at 1 µM of Cc1ccc(N=c2scc(C3(c4ccc(Cl)c(Cl)c4)CCC3)n2-c2ccc(C)cc2)cc1 [Example 28, hydrobromide] for me?
71

Request: CCCCN=c1scc(C2(c3ccc(Cl)cc3)CCCC2)n1CCCC [Example 60, hydrobromide]
106

Request: Fc1ccc(CN=c2scc(C3(c4ccc5ccccc5c4)CCC3)n2Cc2ccc(F)cc2)cc1 [Example 45, hydrobromide]
96

Request: c1ccc(N=c2scc(C3(c4ccc5ccccc5c4)CCC3)n2-c2ccccc2)cc1 [Example 49, hydrobromide]
69

Request: Clc1ccc(C2(c3csc(=Nc4ccccc4)n3-c3ccccc3)CCC2)cc1Cl [Example 27, hydrobromide]
84

Request: CC(C)(C1=CSC2=NCCN12)c1ccc(Cl)c(Cl)c1 [Example 11, hydrobromide]
102

Request: Fc1ccc(CN=c2scc(C3(c4ccc(Cl)c(Cl)c4)CCC3)n2Cc2ccc(F)cc2)cc1 [Example 23, hydrobromide]
83

====

Assign inhibition at 1 µM to each entry below.
biological target: 5-hydroxytryptamine (5-HT) reuptake sites (Rattus norvegicus); construct: Frontal cortical tissue from the brains of male Sprague-Dawley rats; from tissue; host or cells: rat brain frontal cortex (crude synaptosomes in A2, washed membranes in A5); experiment: displacement of [3H]paroxetine from 5-HT reuptake sites, frontal cortical membranes; format: binding; details: 10^-6 M test compound, [3H]paroxetine 30 pM, one test only, read-out: 5-HT uptake (% displacement of specific binding of tritiated ligand)
Where a name gives a salt, the structure may show the parent alone.
Reply with just the number (in %).

Can you look up the measured inhibition at 1 µM of Clc1ccc(C2(c3csc(=NCc4cccnc4)n3Cc3cccnc3)CCC2)cc1Cl [Example 25, hydrobromide] for me?
95

Request: C=CCN=c1scc(C2(c3ccc4ccccc4c3)CCC2)n1CC=C [Example 42, hydrobromide]
101

Request: c1coc(CN=c2scc(C3(c4ccc5ccccc5c4)CCC3)n2Cc2ccco2)c1 [Example 48]
94

Request: C1=C(C2(c3ccc4ccccc4c3)CCC2)N2CCCN=C2S1 [Example 34, hydrobromide]
100

====

biological target: 5-hydroxytryptamine (5-HT) reuptake sites (Rattus norvegicus, UniProt P31652); construct: Frontal cortical tissue from the brains of male Sprague-Dawley rats; from tissue; host or cells: rat brain frontal cortex (crude synaptosomes in A2, washed membranes in A5); assay: displacement of [3H]paroxetine from 5-HT reuptake sites, frontal cortical membranes; type: binding; settings: 10^-6 M test compound, [3H]paroxetine 30 pM, one test only, read-out: 5-HT uptake (% displacement of specific binding of tritiated ligand)
Sequence (P31652 whole entry): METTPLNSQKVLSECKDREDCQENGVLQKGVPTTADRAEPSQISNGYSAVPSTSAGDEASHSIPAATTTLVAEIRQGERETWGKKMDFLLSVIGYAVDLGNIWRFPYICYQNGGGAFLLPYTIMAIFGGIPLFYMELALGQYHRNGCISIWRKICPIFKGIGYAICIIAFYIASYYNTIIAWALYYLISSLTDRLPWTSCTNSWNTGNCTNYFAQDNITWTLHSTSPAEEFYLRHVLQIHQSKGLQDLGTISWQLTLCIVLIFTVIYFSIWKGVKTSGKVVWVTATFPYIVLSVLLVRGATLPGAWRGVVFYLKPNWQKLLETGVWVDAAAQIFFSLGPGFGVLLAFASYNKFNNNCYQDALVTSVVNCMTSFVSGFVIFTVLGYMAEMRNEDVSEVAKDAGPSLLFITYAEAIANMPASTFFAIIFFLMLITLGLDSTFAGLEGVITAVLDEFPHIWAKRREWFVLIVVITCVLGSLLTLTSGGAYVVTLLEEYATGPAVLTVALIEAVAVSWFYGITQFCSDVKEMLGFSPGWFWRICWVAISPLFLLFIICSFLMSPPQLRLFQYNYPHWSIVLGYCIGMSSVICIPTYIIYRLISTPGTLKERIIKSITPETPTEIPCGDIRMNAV
Structures can show the parent of a compound that is named as a salt.
If the reported inhibition at 1 µM equals or exceeds 90%, assign Criterion met. If not, assign Criterion not met.

Hi, just wondering whether Clc1ccc(C2(c3csc(=NCCc4ccccc4)n3CCc3ccccc3)CCC2)cc1 [Example 64, hydrobromide] shows inhibition at 1 µM of 90% or higher.
Criterion not met

Request: CN=c1scc(C2(c3ccc(Cl)c(Cl)c3)CCC2)n1C [Example 14, hydrobromide]
Criterion met

Request: c1ccc2cc(C3(c4csc(=NC5CCCC5)n4C4CCCC4)CCC3)ccc2c1 [Example 53, hydrobromide]
Criterion not met

Request: c1ccc(N=c2scc(C3(c4ccc5ccccc5c4)CCC3)n2-c2ccccc2)cc1 [Example 49, hydrobromide]
Criterion not met

Request: c1cncc(CN=c2scc(C3(c4ccc5ccccc5c4)CCC3)n2Cc2cccnc2)c1 [Example 47, hydrobromide]
Criterion met

Request: CCCCN=c1scc(C2(c3ccccc3)CCCCC2)n1CCCC [Example 61, hydrobromide]
Criterion not met

Request: COc1ccc(CCN=c2scc(C3(c4ccc(Cl)cc4)CCC3)n2CCc2ccc(OC)c(OC)c2)cc1OC [Example 65, hydrobromide]
Criterion not met

Request: CCCCN=c1scc(C(C)(C)c2ccc(Cl)c(Cl)c2)n1CCCC [Example 63, hydrobromide]
Criterion not met

Request: CCN=c1scc(C2(c3ccc(Cl)c(Cl)c3)CCC2)n1CC [Example 15, hydrobromide]
Criterion met

Request: COc1ccc(CCN=c2scc(C3(c4ccccc4)CCCCC3)n2CCc2ccc(OC)c(OC)c2)cc1OC [Example 68, hydrobromide]
Criterion not met

Request: COc1ccc(CCN=c2scc(C3(c4ccc(Cl)cc4)CCCC3)n2CCc2ccc(OC)c(OC)c2)cc1OC [Example 67, hydrobromide]
Criterion not met

Request: Clc1ccc(C2(C3=CSC4=NCCN34)CCCC2)cc1Cl [Example 6, hydrobromide]
Criterion not met

Request: CCCCN=c1scc(C2(c3ccc(SC)cc3)CCC2)n1CCCC [Example 58, hydrobromide]
Criterion not met

====

Molecular target: 5-hydroxytryptamine (5-HT) reuptake sites (Rattus norvegicus)
Construct: Frontal cortical tissue from the brains of male Sprague-Dawley rats; from tissue; host or cells: rat brain frontal cortex (crude synaptosomes in A2, washed membranes in A5)
Assay: inhibition of [3H]5-HT uptake in vitro, frontal cortical synaptosomes
Type: biochemical
Procedure: Frontal cortical tissue from the brains of male Sprague-Dawley rats (Charles River; weight range 150-250 g) was homogenised in ice-cold 0.32M sucrose (1:10 w/v) using a motor driven teflon pestle (difference in diameter between mortar and pestle 0.5 mm). […] Crude synaptosomes were incubated in a shaking water bath at 37° C. for 15 minutes. […] The scored filter paper discs were punched into vials, scintillation fluid added and radioactivity determined by liquid scintillation counting. […]
Where a name gives a salt, the structure may show the parent alone.
Assign pKi to each entry below.
Please express pKi as -log10 of the molar concentration.

Can you look up the measured pKi of C1=C(C2(c3ccc4ccccc4c3)CCC2)N2CCN=C2S1 [Example 5, hydrobromide] for me?
7.60

Request: Clc1ccc(C2(C3=CSC4=NCCCN34)CCC2)cc1Cl [Example 4, hydrobromide]
6.86

Request: Clc1ccc(C2(C3=CSC4=NCCN34)CCC2)cc1 [Example 3, hydrobromide]
6.10

Request: Clc1ccc(C2(C3=CSC4=NCCCN34)CCC2)cc1 [Example 2, hydrobromide]
6.11

====

target: noradrenaline (NA) reuptake sites (Rattus norvegicus, UniProt Q63380); construct: Frontal cortical tissue from the brains of male Sprague-Dawley rats; from tissue; host or cells: rat brain frontal cortex (crude synaptosomes in A3, washed membranes in A6); assay: displacement of [3H]nisoxetine from noradrenaline reuptake sites, frontal cortical membranes; conditions: 10^-6 M test compound, [3H]nisoxetine 0.6 nM, one test only, read-out: NA uptake (% displacement of specific binding of tritiated ligand)
Sequence (Q63380 1-617): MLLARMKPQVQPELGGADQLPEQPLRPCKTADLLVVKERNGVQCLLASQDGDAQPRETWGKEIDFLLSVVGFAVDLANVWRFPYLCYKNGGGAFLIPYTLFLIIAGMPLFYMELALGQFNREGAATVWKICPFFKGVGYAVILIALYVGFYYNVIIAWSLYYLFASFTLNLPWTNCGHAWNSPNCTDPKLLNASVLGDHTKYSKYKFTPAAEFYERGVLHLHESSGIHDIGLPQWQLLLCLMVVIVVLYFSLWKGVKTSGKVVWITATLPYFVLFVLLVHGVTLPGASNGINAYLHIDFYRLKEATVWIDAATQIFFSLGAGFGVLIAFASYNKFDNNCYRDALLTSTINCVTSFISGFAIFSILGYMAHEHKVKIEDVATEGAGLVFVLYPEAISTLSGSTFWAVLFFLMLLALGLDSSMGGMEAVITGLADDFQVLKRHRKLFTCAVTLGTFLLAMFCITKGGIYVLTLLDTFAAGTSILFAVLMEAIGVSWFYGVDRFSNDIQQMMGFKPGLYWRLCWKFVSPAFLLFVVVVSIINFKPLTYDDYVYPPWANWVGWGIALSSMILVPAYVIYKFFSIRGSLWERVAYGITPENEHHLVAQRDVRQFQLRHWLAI
Counter-ions that a name gives are not always drawn.
Assign inhibition at 1 µM to each entry below.

Can you look up the measured inhibition at 1 µM of Clc1ccc(C2(c3csc(=NCc4ccco4)n3Cc3ccco3)CCC2)cc1Cl [Example 26, hydrobromide] for me?
< 50%

Request: Clc1ccc(C2(c3csc(=NCc4cccnc4)n3Cc3cccnc3)CCC2)cc1Cl [Example 25, hydrobromide]
66%

Request: CCCCN=c1scc(C2(c3ccc(Cl)c(Cl)c3)CCC2)n1CCCC [Example 18, hydrobromide]
63%

Request: c1ccc2cc(C3(c4csc(=NCC5CC5)n4CC4CC4)CCC3)ccc2c1 [Example 43, hydrobromide]
93%

Request: Cc1ccc(N=c2scc(C3(c4ccc(Cl)c(Cl)c4)CCC3)n2-c2ccc(C)cc2)cc1 [Example 28, hydrobromide]
< 50%

Request: COc1ccc(CCN=c2scc(C3(c4ccc(Cl)cc4)CCCC3)n2CCc2ccc(OC)c(OC)c2)cc1OC [Example 67, hydrobromide]
< 50%

Request: C=CCN=c1scc(C2(c3ccc(Cl)c(Cl)c3)CCC2)n1CC=C [Example 20, hydrobromide]
91%

Request: CCCCN=c1scc(C(C)(C)c2ccc(Cl)c(Cl)c2)n1CCCC [Example 63, hydrobromide]
< 50%

Request: Fc1ccc(CN=c2scc(C3(c4ccc5ccccc5c4)CCC3)n2Cc2ccc(F)cc2)cc1 [Example 45, hydrobromide]
< 50%

Request: C1=C(C2(c3ccc4ccccc4c3)CCC2)N2CCCN=C2S1 [Example 34, hydrobromide]
110%

====

Assign inhibition at 1 µM to each entry below.
target: noradrenaline (NA) reuptake sites (Rattus norvegicus, UniProt Q63380); construct: Frontal cortical tissue from the brains of male Sprague-Dawley rats; from tissue; host or cells: rat brain frontal cortex (crude synaptosomes in A3, washed membranes in A6); test: displacement of [3H]nisoxetine from noradrenaline reuptake sites, frontal cortical membranes; details: 10^-6 M test compound, [3H]nisoxetine 0.6 nM, one test only, read-out: NA uptake (% displacement of specific binding of tritiated ligand)
Counter-ions that a name gives are not always drawn.

Can you look up the measured inhibition at 1 µM of CC(C)CN=c1scc(C2(c3ccc4ccccc4c3)CCC2)n1CC(C)C for me?
79%

Request: Clc1ccc(C2(C3=C(Cc4ccccc4)SC4=NCCN43)CCC2)cc1 [Example 7, hydrobromide]
< 50%

Request: c1ccc(CCN=c2scc(C3(c4ccc5ccccc5c4)CCC3)n2CCc2ccccc2)cc1 [Example 46, hydrobromide]
< 50%

Request: C1=C(C2(c3cc4ccccc4s3)CCC2)N2CCN=C2S1 [Example 12, hydrobromide]
95%

Request: COc1ccc(CCN=c2scc(C3(c4ccc(Cl)cc4)CCC3)n2CCc2ccc(OC)c(OC)c2)cc1OC [Example 65, hydrobromide]
< 50%

Request: CC(C)(C1=CSC2=NCCN12)c1ccc(Cl)c(Cl)c1 [Example 11, hydrobromide]
< 50%

Request: CCCCN=c1scc(C2(c3ccccc3)CCCCC2)n1CCCC [Example 61, hydrobromide]
< 50%

Request: CC(C)N=c1scc(C2(c3ccc4ccccc4c3)CCC2)n1C(C)C [Example 39, hydrobromide]
58%
